The origin of these recorded values is patent EP3417074B1.

- Test system: MUTZ-3 cells
- Test Summary: GARD binary classification (SVM on GARD prediction signature, 200 transcripts)
- Details: Table 8; average SVM decision value derived from triplicates
This listing pairs compounds with measured SVM DV.

Consider the following illustrative entries.
>>> measured_result("OCC(O)CO")
"-2,05"
>>> measured_result("CC1(C)S[C@@H]2[C@H](NC(=O)Cc3ccccc3)C(=O)N2[C@H]1C(=O)O")
"1,06"

Task item: Could you please provide reported SVM DV for CC(O)C(=O)O (centres unmarked) ? Thanks!
Reply: -2,38

Task item: Could you please provide reported SVM DV for CC(O)CO (centres unmarked) ? Thanks!
Reply: -1,18

Task item: Could you please provide reported SVM DV for Nc1ccc(N)cc1 ? Thanks!
Reply: 5,32

Task item: Could you please provide reported SVM DV for Oc1cccc(O)c1 ? Thanks!
Reply: 1,03

* * *

- Test system: MUTZ-3 cells
- Test Summary: GARD binary classification (SVM on GARD prediction signature, 200 transcripts)
- Details: Table 8; average SVM decision value derived from triplicates
Reported Endpoint: SVM DV

Consider the following illustrative entries.
>>> measured_result("CCOC(=O)c1ccccc1C(=O)OCC [diethyl phthalate]")
"-2,15"
>>> measured_result("CCCCCCCC(=O)O [octanoic acid]")
"-1,19"
>>> measured_result("O=Cc1ccccc1 [benzaldehyde]")
"-2,13"
>>> measured_result("O=[N+]([O-])c1ccc(Cl)c([N+](=O)[O-])c1 [2,4-dinitrochlorobenzene]")
"6,31"
>>> measured_result("Nc1ccc(C(=O)O)cc1 [PABA]")
"-1,04"
>>> measured_result("COC(=O)c1ccccc1O [methyl salicylate]")
"-1,53"
>>> measured_result("Clc1ccccc1 [chlorobenzene]")
"-1,63"
>>> measured_result("CCCCCCC(C=O)=Cc1ccccc1 [hexylcinnamic aldehyde]")
"1,24"
>>> measured_result("O=CC=O [glyoxal]")
"1,08"
>>> measured_result("NCCN [ethylenediamine]")
"1,12"

Task item: Could you please provide reported SVM DV for Sc1nc2ccccc2s1 [2-mercaptobenzothiazole] ? Thanks!
Reply: 2,52

Task item: Could you please provide reported SVM DV for CCCCCCCC/C=C\CCCCCCCC(=O)OCCOCC(OCCO)C1OCC(OCCO)C1OCCO (stereo not drawn) [Tween 80] ? Thanks!
Reply: -1,39

* * *

- System: MUTZ-3 cells
- Test Summary: Cytotoxicity / viability by flow cytometry (propidium iodide)
- Details: Table 1, 24 hours exposure
Reported Endpoint: cytotox

Consider the following illustrative entries.
>>> measured_result("O=C1C=CC(=O)C=C1")
"yes"
>>> measured_result("CCCCCC#CC(=O)OC [methyl heptine carbonate]")
"yes"
>>> measured_result("OCc1ccccc1")
"no"
>>> measured_result("O=C(O)CC(O)(CC(=O)O)C(=O)O")
"no"
>>> measured_result("OCCNCCO")
"no"
>>> measured_result("CC(C)C1=CC2=CC[C@@H]3[C@](C)(CCC[C@@]3(C)C(=O)O)[C@H]2CC1")
"no"
>>> measured_result("O=C(O)C(O)C(O)C(=O)O (stereo not shown)")
"no"
>>> measured_result("CCCCCCOC(=O)c1ccccc1O [hexyl salicylate]")
"yes"

Task item: Could you please provide reported cytotox for Clc1nc(Cl)nc(Cl)n1 [cyanuric chloride] ? Thanks!
Reply: yes

Task item: Could you please provide reported cytotox for CC(C)=CCCC(C)CCO (stereo not shown) ? Thanks!
Reply: no
